B1: EHEE_rd2_0196 (parent)
chain: TETRTFDSEEEAKKAQKEAEKQGRTVTITRRDDRWEVRFD

- Variants of: B1
- method.notes: folding stability dG (cDNA display proteolysis); higher = more stable
- assay.setup: PBS, room temperature
Label 1 (yes) when folding stability dG >= 10 kJ/mol; otherwise 0 (no).

Illustrative cases are given below, each with its answer.
| mutation.name | cat |
| --- | --- |
| A12M | 0 (no) |
| E10L | 1 (yes) |
| A15K | 0 (no) |
| E36A | 0 (no) |
| R34V | 1 (yes) |
| E9P | 0 (no) |
| R24L | 1 (yes) |
| D32M | 1 (yes) |

query: Entry `T25V` : is its folding stability dG no less than 10 kJ/mol?
result: 1 (yes)

query: Would you kindly repeat that for `W35T` ?
result: 0 (no)

query: Would you kindly repeat that for `K13M` ?
result: 1 (yes)

query: Would you kindly repeat that for `E18H` ?
result: 1 (yes)

query: Would you kindly repeat that for `A15M` ?
result: 1 (yes)

query: Would you kindly repeat that for `K14P` ?
result: 0 (no)

query: Would you kindly repeat that for `K17G` ?
result: 1 (yes)

query: Would you kindly repeat that for `T27Y` ?
result: 0 (no)

query: Would you kindly repeat that for `I28F` ?
result: 0 (no)

query: Would you kindly repeat that for `K17H` ?
result: 1 (yes)

query: Would you kindly repeat that for `V26C` ?
result: 1 (yes)
